Please provide measured Kd for the entries that follow.
Target: T1, IFN-α4a (human, UniProt P05014 24-189)
T1 construct: also called IFN-αM1
Test: ProteOn, one antigen concentration
Report as a plain number; the unit nM is understood.

Q: Sample IFWM3325 (antibody, V domains shown, VH IFWH591, VL IFWL1060; converted mAb; also called IFWB3060) VH: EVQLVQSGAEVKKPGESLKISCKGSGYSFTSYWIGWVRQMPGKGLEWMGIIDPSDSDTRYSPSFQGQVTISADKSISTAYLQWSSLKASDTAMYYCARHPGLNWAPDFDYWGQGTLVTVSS VL: DIQMTQSPSSLSASVGDRVTITCRASQSIRNSLNWYQQKPGKAPKLLIKWASSLQSGVPSRFSGSGSGTDFTLTISSLQPEDFATYYCQQLYDWPLTFGQGTKVEIK — what was its Kd?
A: 0.111

Q: Sample IFWM3354 (antibody, V domains shown, VH IFWH624, VL IFWL1017; converted mAb; also called IFWB3089) VH: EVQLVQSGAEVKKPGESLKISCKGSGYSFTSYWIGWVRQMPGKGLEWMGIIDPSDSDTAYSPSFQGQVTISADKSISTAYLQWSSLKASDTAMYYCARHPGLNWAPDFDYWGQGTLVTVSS VL: DIQMTQSPSSLSASVGDRVTITCRASQSITSSLNWYQQKPGKAPKLLIYFASSLQSGVPSRFSGSGSGTDFTLTISSLQPEDFATYYCQQSFDLPLTFGQGTKVEIK — what was its Kd?
A: 0.123

Q: Sample IFWM3345 (antibody, V domains shown, VH IFWH624, VL IFWL1000; converted mAb; also called IFWB3080) VH: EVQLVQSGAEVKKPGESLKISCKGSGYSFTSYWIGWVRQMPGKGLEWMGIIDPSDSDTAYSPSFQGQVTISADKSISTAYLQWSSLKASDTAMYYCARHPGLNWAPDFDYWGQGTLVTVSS VL: DIQMTQSPSSLSASVGDRVTITCRASQSITNFLNWYQQKPGKAPKLLIYFASSLQSGVPSRFSGSGSGTDFTLTISSLQPEDFATYYCQQSLDFPLTFGQGTKVEIK — what was its Kd?
A: 0.324

Q: Sample IFWM3340 (antibody, V domains shown, VH IFWH624, VL IFWL983; converted mAb; also called IFWB3075) VH: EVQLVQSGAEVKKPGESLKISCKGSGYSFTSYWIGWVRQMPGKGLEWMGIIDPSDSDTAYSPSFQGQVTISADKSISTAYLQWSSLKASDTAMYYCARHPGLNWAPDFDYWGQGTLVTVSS VL: DIQMTQSPSSLSASVGDRVTITCRASQSIDGSLNWYQQKPGKAPKLLIYFASSLQSGVPSRFSGSGSGTDFTLTISSLQPEDFATYYCQQSYDFPLTFGQGTKVEIK — what was its Kd?
A: 0.201

Q: Sample IFWM3312 (antibody, V domains shown, VH IFWH591, VL IFWL1010; converted mAb; also called IFWB3047) VH: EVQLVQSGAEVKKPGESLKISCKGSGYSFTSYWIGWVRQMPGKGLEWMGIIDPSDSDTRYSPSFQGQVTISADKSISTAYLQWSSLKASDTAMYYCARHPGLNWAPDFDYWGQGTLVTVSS VL: DIQMTQSPSSLSASVGDRVTITCRASQSIDGALNWYQQKPGKAPKLLIYFASSLQSGVPSRFSGSGSGTDFTLTISSLQPEDFATYYCQQSFDFPLTFGQGTKVEIK — what was its Kd?
A: 0.144

Q: Sample IFWM3331 (antibody, V domains shown, VH IFWH591, VL IFWL1073; converted mAb; also called IFWB3066) VH: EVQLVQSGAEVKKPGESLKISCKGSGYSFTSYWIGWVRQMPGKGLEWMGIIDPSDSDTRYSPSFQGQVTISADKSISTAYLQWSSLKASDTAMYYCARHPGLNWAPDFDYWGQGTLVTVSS VL: DIQMTQSPSSLSASVGDRVTITCRASQSIDNSYLNWYQQKPGKAPKLLIYGASSLQSGVPSRFSGSGSGTDFTLTISSLQPEDFATYYCQQGWDWPLTFGQGTKVEIK — what was its Kd?
A: 0.085

Q: Sample IFWM3316 (antibody, V domains shown, VH IFWH591, VL IFWL1022; converted mAb; also called IFWB3051) VH: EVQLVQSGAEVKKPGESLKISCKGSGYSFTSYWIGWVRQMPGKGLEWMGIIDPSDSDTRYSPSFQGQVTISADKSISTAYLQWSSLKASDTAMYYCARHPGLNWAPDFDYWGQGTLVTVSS VL: DIQMTQSPSSLSASVGDRVTITCRASQSINEFLNWYQQKPGKAPKLLIYFASSLQSGVPSRFSGSGSGTDFTLTISSLQPEDFATYYCQQSYSTPLTFGQGTKVEIK — what was its Kd?
A: 0.168

Q: Sample IFWM3353 (antibody, V domains shown, VH IFWH624, VL IFWL1014; converted mAb; also called IFWB3088) VH: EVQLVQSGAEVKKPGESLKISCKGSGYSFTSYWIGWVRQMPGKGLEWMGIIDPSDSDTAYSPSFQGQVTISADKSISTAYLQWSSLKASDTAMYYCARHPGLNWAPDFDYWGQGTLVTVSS VL: DIQMTQSPSSLSASVGDRVTITCRASQSIDRALNWYQQKPGKAPKLLIYFASSLQSGVPSRFSGSGSGTDFTLTISSLQPEDFATYYCQQSFDFPLTFGQGTKVEIK — what was its Kd?
A: 0.11

Q: Sample IFWM3318 (antibody, V domains shown, VH IFWH591, VL IFWL1038; converted mAb; also called IFWB3053) VH: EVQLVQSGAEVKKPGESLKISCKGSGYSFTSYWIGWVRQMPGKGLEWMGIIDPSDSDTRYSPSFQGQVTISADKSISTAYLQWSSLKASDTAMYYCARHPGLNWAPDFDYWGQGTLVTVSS VL: DIQMTQSPSSLSASVGDRVTITCRASQSISEYLNWYQQKPGKAPKLLIYFASSLQSGVPSRFSGSGSGTDFTLTISSLQPEDFATYYCQQSHSLPITFGQGTKVEIK — what was its Kd?
A: 0.252

Q: Sample IFWM3307 (antibody, V domains shown, VH IFWH591, VL IFWL1001; converted mAb; also called IFWB3042) VH: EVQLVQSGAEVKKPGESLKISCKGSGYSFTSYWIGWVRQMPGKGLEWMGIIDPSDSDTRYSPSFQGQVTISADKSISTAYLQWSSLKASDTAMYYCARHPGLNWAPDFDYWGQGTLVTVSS VL: DIQMTQSPSSLSASVGDRVTITCRASQSIGDFLNWYQQKPGKAPKLLIYFASSLQSGVPSRFSGSGSGTDFTLTISSLQPEDFATYYCQQALDFPLTFGQGTKVEIK — what was its Kd?
A: 0.426
